# credit: patent US20240182536A1

Listing of entries alongside the reported Ratio (HEK-blue EC50, + 100 nM BP against - BP).
Biological target: T1, interleukin 18 binding protein (IL-18BP) (UniProt O95998 31-194)
T1 sequence (looked up): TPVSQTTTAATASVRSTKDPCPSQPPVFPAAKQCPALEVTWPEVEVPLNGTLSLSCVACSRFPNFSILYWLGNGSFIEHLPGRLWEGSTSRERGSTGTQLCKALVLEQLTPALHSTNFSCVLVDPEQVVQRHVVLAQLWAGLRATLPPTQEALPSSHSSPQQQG
Test: cell-based or functional assay

Some solved cases for reference:
IL-18 variant G3E, E6H, R27S, D54A, S55T, T63S, N91F, R104S (ligand) YFEKLHSKLSVIRNLNDQVLFIDQGNSPLFEDMTDSDMRDNAPRTIFIISMYKATQPRGMAVSISVKSEKISTLSSENKIISFKEMNPPDFIKDTKSDIIFFQSSVPGHDNKMQFESSSYEGYFLASEKERDLFKLILKKEDELGDRSIMFTVQNED
8.9
IL-18 variant G3Q, E6N, D54Y, S55P, T63S, N91S, R104H (ligand) YFQKLNSKLSVIRNLNDQVLFIDQGNRPLFEDMTDSDMRDNAPRTIFIISMYKYPQPRGMAVSISVKSEKISTLSSENKIISFKEMNPPDSIKDTKSDIIFFQHSVPGHDNKMQFESSSYEGYFLASEKERDLFKLILKKEDELGDRSIMFTVQNED
3.6

Fill in Ratio (HEK-blue EC50, + 100 nM BP against - BP) for record IL-18 variant G3Q, E6S, S55V, T63A, N91T (ligand) YFQKLSSKLSVIRNLNDQVLFIDQGNRPLFEDMTDSDMRDNAPRTIFIISMYKDVQPRGMAVAISVKSEKISTLSSENKIISFKEMNPPDTIKDTKSDIIFFQRSVPGHDNKMQFESSSYEGYFLASEKERDLFKLILKKEDELGDRSIMFTVQNED
180

Fill in Ratio (HEK-blue EC50, + 100 nM BP against - BP) for record IL-18 variant G3L, E6Q, T63S, N91L, R104T (ligand) YFLKLQSKLSVIRNLNDQVLFIDQGNRPLFEDMTDSDMRDNAPRTIFIISMYKDSQPRGMAVSISVKSEKISTLSSENKIISFKEMNPPDLIKDTKSDIIFFQTSVPGHDNKMQFESSSYEGYFLASEKERDLFKLILKKEDELGDRSIMFTVQNED
55.7

Fill in Ratio (HEK-blue EC50, + 100 nM BP against - BP) for record IL-18 variant G3Q, E6K, D54S, S55P, T63S, N91S, R104Q (ligand) YFQKLKSKLSVIRNLNDQVLFIDQGNRPLFEDMTDSDMRDNAPRTIFIISMYKSPQPRGMAVSISVKSEKISTLSSENKIISFKEMNPPDSIKDTKSDIIFFQQSVPGHDNKMQFESSSYEGYFLASEKERDLFKLILKKEDELGDRSIMFTVQNED
27.6

Fill in Ratio (HEK-blue EC50, + 100 nM BP against - BP) for record IL-18 variant G3Q, E6G, D54N, S55H, T63V, N91M, R104T (ligand) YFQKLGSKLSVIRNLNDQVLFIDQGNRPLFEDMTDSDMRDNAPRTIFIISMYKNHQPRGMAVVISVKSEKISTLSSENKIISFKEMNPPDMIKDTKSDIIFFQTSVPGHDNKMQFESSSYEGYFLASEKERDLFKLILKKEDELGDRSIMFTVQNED
2.7

Fill in Ratio (HEK-blue EC50, + 100 nM BP against - BP) for record IL-18 variant G3I, E6D, D54A, S55F, N91Y, R104H (ligand) YFIKLDSKLSVIRNLNDQVLFIDQGNRPLFEDMTDSDMRDNAPRTIFIISMYKAFQPRGMAVTISVKSEKISTLSSENKIISFKEMNPPDYIKDTKSDIIFFQHSVPGHDNKMQFESSSYEGYFLASEKERDLFKLILKKEDELGDRSIMFTVQNED
7.6
